target: alkaline phosphatase (Bos taurus, UniProt P19111); assay: Alkaline phosphatase detection limits, LabSystems Luminoskan (Example XXV); type: biochemical; conditions: SAPPHIRE, 20 MINUTE INCUBATION
Sequence (P19111 20-506 limits assumed): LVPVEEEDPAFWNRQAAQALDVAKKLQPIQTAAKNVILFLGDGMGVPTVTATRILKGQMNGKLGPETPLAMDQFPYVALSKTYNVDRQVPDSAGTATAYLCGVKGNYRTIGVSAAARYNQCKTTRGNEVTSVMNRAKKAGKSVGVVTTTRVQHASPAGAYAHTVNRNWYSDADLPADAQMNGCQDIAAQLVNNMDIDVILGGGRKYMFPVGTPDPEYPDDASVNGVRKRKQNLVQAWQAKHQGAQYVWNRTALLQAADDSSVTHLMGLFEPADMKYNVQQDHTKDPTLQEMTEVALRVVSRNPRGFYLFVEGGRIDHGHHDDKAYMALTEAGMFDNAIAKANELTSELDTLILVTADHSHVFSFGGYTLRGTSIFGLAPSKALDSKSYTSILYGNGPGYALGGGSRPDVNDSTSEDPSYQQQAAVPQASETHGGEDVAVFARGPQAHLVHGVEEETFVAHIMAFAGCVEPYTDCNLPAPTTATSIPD
Here the recorded Alkaline phosphatase detection limit (at 2× background) is given for each entry.
The reply should be a number in pM, with the unit left off.

Guide cases for Alkaline phosphatase detection limit (at 2× background), answers given:
COC1(c2cccc(OP(=O)(O)O)c2)OOC12C1CC3CC(C1)CC2C3 (stereo not shown) [AMPPD, reference compound]	0.0014
COC1(c2cccc(OP(=O)(O)O)c2)OOC12C1CC3CC2CC(Br)(C3)C1 (stereo not shown)	0.0004
COC1(c2cccc(OP(=O)(O)O)c2)OOC12C1CC3CC2CC(Cl)(C3)C1 (stereo not shown)	0.0005

Here is the next item to consider.
Alkaline phosphatase detection limit (at 2× background) for alkaline phosphatase (Bos taurus, UniProt P19111) with input COC1(c2cccc(OP(=O)(O)O)c2)OOC12C1CC3CC2CC(O)(C3)C1 (single isomer, unassigned) equals 0.0011

###

Here the recorded chemiluminescent signal-to-noise level is given for each entry.
Target: UniProtKB P19111
Experiment: Chemiluminescent signal-to-noise levels with enhancers (Example XXIV)
Type: biochemical
Conditions: enhancer NONE; 20 min
Description: The chemiluminescent signal to noise levels were obtained with 2.83×10^-13 M alkaline phosphatase and various R-substituted adamantyl 1,2-dioxetane phosphates in the presence of several enhancers. All measurements were performed in a Berthold LB952T luminometer at room temperature. First, the background chemiluminescence levels (signal in the absence of the enzyme) of each sample (in triplicate) were measured. […] Tubes were inserted into the luminometer and the luminescence intensity was measured. […]
Give a plain numeric answer without units written out.

COC1(c2cccc(OP(=O)(O)O)c2)OOC12C1CC3CC2CC(Cl)(C3)C1 (stereo not shown)	98
COC1(c2cccc(OP(=O)(O)O)c2)OOC12C1CC3CC2CC(Br)(C3)C1 (stereo not shown)	92
COC1(c2cccc(OP(=O)(O)O)c2)OOC12C1CC3CC(C1)CC2C3 (stereo not shown) [AMPPD, reference compound]	34

Here is the next item to consider.
Briefly, chemiluminescent signal-to-noise level measured for COC1(c2cccc(OP(=O)(O)O)c2)OOC12C1CC3CC2CC(O)(C3)C1 (single isomer, unassigned) : 73

###

biological target: alkaline phosphatase (Bos taurus, UniProt P19111); assay: Chemiluminescent signal and signal:background with enhancer polymers (Example XVII); type: biochemical; conditions: polymer MPB; 20 min
Observable: S/N
Give a plain numeric answer without units written out.

COC1(c2cccc(OP(=O)(O)O)c2)OOC12C1CC3CC(C1)CC2C3 (stereo not shown) [AMPPD, reference compound]	196.9

Briefly, S/N measured for COC1(c2cccc(OP(=O)(O)O)c2)OOC12C1CC3CC2CC(O)(C3)C1 (single isomer, unassigned) [A-OH-AMPPD] : 172.7

Briefly, S/N measured for COC1(c2cccc(OP(=O)(O)O)c2)OOC12C1CC3CC2CC(O)(C3)C1 (single isomer, unassigned) [B-OH-AMPPD] : 78.0

Briefly, S/N measured for COC1(c2cccc(OP(=O)(O)O)c2)OOC12C1CC3CC2CC(Cl)(C3)C1 (stereo not shown) : 306.5

###

Here the recorded S/N is given for each entry.
target: alkaline phosphatase (Bos taurus); assay: Chemiluminescent signal and signal:background with enhancer polymers (Example XVII); assay type: biochemical; settings: polymer BAEDM; 5 min

Guide cases for S/N, answers given:
COC1(c2cccc(OP(=O)(O)O)c2)OOC12C1CC3CC2CC(O)(C3)C1 (single isomer, unassigned) [A-OH-AMPPD]	61.6
COC1(c2cccc(OP(=O)(O)O)c2)OOC12C1CC3CC(C1)CC2C3 (stereo not shown) [AMPPD, reference compound]	107.6
COC1(c2cccc(OP(=O)(O)O)c2)OOC12C1CC3CC2CC(Cl)(C3)C1 (stereo not shown)	102.2

Here is the next item to consider.
Briefly, S/N measured for COC1(c2cccc(OP(=O)(O)O)c2)OOC12C1CC3CC2CC(O)(C3)C1 (single isomer, unassigned) [B-OH-AMPPD] : 25.4

###

biological target: alkaline phosphatase (Bos taurus); test: Chemiluminescent signal and signal:background with enhancer polymers (Example XVII); assay type: biochemical; details: polymer TEQ; 5 min
Here the recorded SIGNAL is given for each entry.
Give a plain numeric answer without units written out.

COC1(c2cccc(OP(=O)(O)O)c2)OOC12C1CC3CC2CC(O)(C3)C1 (single isomer, unassigned) [A-OH-AMPPD]	15779.8

Briefly, SIGNAL measured for COC1(c2cccc(OP(=O)(O)O)c2)OOC12C1CC3CC2CC(O)(C3)C1 (single isomer, unassigned) [B-OH-AMPPD] : 8806.2

Briefly, SIGNAL measured for COC1(c2cccc(OP(=O)(O)O)c2)OOC12C1CC3CC(C1)CC2C3 (stereo not shown) [AMPPD, reference compound] : 25095.8

Briefly, SIGNAL measured for COC1(c2cccc(OP(=O)(O)O)c2)OOC12C1CC3CC2CC(Cl)(C3)C1 (stereo not shown) [Cl-AMPPD] : 26551.0

###

biological target: alkaline phosphatase (Bos taurus, UniProt P19111); test: Chemiluminescent signal and signal:background with enhancer polymers (Example XVII); format: biochemical; settings: polymer TBQ; 20 min
Here the recorded S/N is given for each entry.
Give a plain numeric answer without units written out.

COC1(c2cccc(OP(=O)(O)O)c2)OOC12C1CC3CC2CC(O)(C3)C1 (single isomer, unassigned) [A-OH-AMPPD]	438.0
COC1(c2cccc(OP(=O)(O)O)c2)OOC12C1CC3CC2CC(Cl)(C3)C1 (stereo not shown)	1763.9
COC1(c2cccc(OP(=O)(O)O)c2)OOC12C1CC3CC2CC(O)(C3)C1 (single isomer, unassigned) [B-OH-AMPPD]	131.1

Here is the next item to consider.
Briefly, S/N measured for COC1(c2cccc(OP(=O)(O)O)c2)OOC12C1CC3CC(C1)CC2C3 (stereo not shown) [AMPPD, reference compound] : 433.9

###

molecular target: alkaline phosphatase (Bos taurus, UniProt P19111); assay: Detection limits for alkaline phosphatase, Berthold LB952T (Example XXII); assay type: biochemical; conditions: ENHANCER 2; 5 MIN; twice background
Observable: Detection limit for alkaline phosphatase (femtomoles/liter)
The reply should be a number in femtomoles/liter, with the unit left off.

Guide cases for Detection limit for alkaline phosphatase, answers given:
COC1(c2cccc(OP(=O)(O)O)c2)OOC12C1CC3CC2CC(O)(C3)C1 (single isomer, unassigned)	1.0
COC1(c2cccc(OP(=O)(O)O)c2)OOC12C1CC3CC2CC(Cl)(C3)C1 (stereo not shown)	0.8
COC1(c2cccc(OP(=O)(O)O)c2)OOC12C1CC3CC2CC(Br)(C3)C1 (stereo not shown)	0.4

Here is the next item to consider.
Briefly, Detection limit for alkaline phosphatase measured for COC1(c2cccc(OP(=O)(O)O)c2)OOC12C1CC3CC(C1)CC2C3 (stereo not shown) [AMPPD, reference compound] : 3.5

###

target: alkaline phosphatase (Bos taurus, UniProt P19111); test: Chemiluminescent signal and signal:background with enhancer polymers (Example XVII); format: biochemical; details: polymer S/TMQ(1:2); 5 min
Here the recorded SIGNAL is given for each entry.
Give a plain numeric answer without units written out.

Guide cases for SIGNAL, answers given:
COC1(c2cccc(OP(=O)(O)O)c2)OOC12C1CC3CC2CC(Cl)(C3)C1 (stereo not shown)	3121.4
COC1(c2cccc(OP(=O)(O)O)c2)OOC12C1CC3CC2CC(O)(C3)C1 (single isomer, unassigned) [A-OH-AMPPD]	10193.8
COC1(c2cccc(OP(=O)(O)O)c2)OOC12C1CC3CC2CC(O)(C3)C1 (single isomer, unassigned) [B-OH-AMPPD]	3305.1

Here is the next item to consider.
SIGNAL for alkaline phosphatase (Bos taurus, UniProt P19111) with input COC1(c2cccc(OP(=O)(O)O)c2)OOC12C1CC3CC(C1)CC2C3 (stereo not shown) [AMPPD, reference compound] equals 3437.0

###

Here the recorded SIGNAL is given for each entry.
target: UniProtKB P19111; assay: Chemiluminescent signal and signal:background with enhancer polymers (Example XVII); type: biochemical; settings: polymer SAPPHIRE; 20 min
Give a plain numeric answer without units written out.

COC1(c2cccc(OP(=O)(O)O)c2)OOC12C1CC3CC(C1)CC2C3 (stereo not shown) [AMPPD, reference compound]	85359.8

Briefly, SIGNAL measured for COC1(c2cccc(OP(=O)(O)O)c2)OOC12C1CC3CC2CC(O)(C3)C1 (single isomer, unassigned) [A-OH-AMPPD] : 25330.3

Briefly, SIGNAL measured for COC1(c2cccc(OP(=O)(O)O)c2)OOC12C1CC3CC2CC(O)(C3)C1 (single isomer, unassigned) [B-OH-AMPPD] : 14625.4

Briefly, SIGNAL measured for COC1(c2cccc(OP(=O)(O)O)c2)OOC12C1CC3CC2CC(Cl)(C3)C1 (stereo not shown) [Cl-AMPPD] : 70161.6
